Data origin: ChEMBL document CHEMBL2095176

Listed below: logD values for each entry.
- Experimental details: physchem
- Measurement parameters: buffer, pH 7.4
- Description: GSK_TB: GSK in-house hydrophobicity assay at pH7.4 (logD)

{"Compound": "FC(F)(F)c1cc(SCc2ccccc2)nc(-c2ccccn2)n1", "logD": 7.12}
{"Compound": "Nc1nc(N)c2c(Sc3ccc4ccccc4c3)cccc2n1", "logD": 4.41}
{"Compound": "CN1CCN(c2cc(-c3ccncc3)nc(-c3ccccc3)n2)CC1", "logD": 4.88}
{"Compound": "Clc1ccc(Nc2nc(-c3ccccn3)cs2)nc1", "logD": 5.35}
{"Compound": "CSc1ccc(C(=O)Nc2nc(-c3ccccn3)cs2)cc1", "logD": 5.07}
{"Compound": "Cc1nc2ccccn2c1C(=O)Nc1ccc(C(C)(C)C)cc1", "logD": 5.81}
{"Compound": "Fc1ccc2nc(Nc3nc(-c4ccccn4)cs3)sc2c1", "logD": 5.53}
{"Compound": "COc1cc(C(F)(F)F)nc2ccc(C)c(N)c12", "logD": 4.97}
{"Compound": "O=C(COc1ccccc1)N1CCN(c2cnc3ccccc3n2)CC1", "logD": 4.69}
{"Compound": "CCn1c(=O)c(=O)[nH]c2cc(C(=O)Nc3ccccc3Nc3ccc(OC)cc3)ccc21", "logD": 3.67}
{"Compound": "c1ccc(SCc2nn3c(-c4ccccc4)nnc3s2)cc1", "logD": 5.44}
{"Compound": "Cn1ccnc1CNCCS(=O)(=O)c1cccc(Nc2ccc(-c3cccc(F)c3)cn2)c1", "logD": 4.41}
{"Compound": "COc1cc2ccccc2cc1C(=O)NCc1cccc(-c2ccccc2OC)c1", "logD": 7.21}
{"Compound": "CCc1ccc(Nc2nnc(SCc3cc(C)on3)s2)cc1", "logD": 5.72}
{"Compound": "O=C(c1cc2ccccc2o1)N1CCN(Cc2ccc3c(c2)OCO3)CC1", "logD": 5.63}
{"Compound": "N#Cc1ccc2c(c1)CCN(CCCSc1ccnc3cc(C(F)(F)F)ccc13)CC2", "logD": 7.96}
{"Compound": "Clc1ccc(CCNc2cc(-c3ccccc3)nc3ncnn23)cc1", "logD": 5.53}
{"Compound": "Cc1occc1C(=O)Nc1nc(-c2ccccn2)nc2ccsc12", "logD": 4.79}
{"Compound": "Cc1cc(NCCc2ccccc2)nc(NC(=N)Nc2ccc(Cl)cc2)n1", "logD": 4}
{"Compound": "Nc1nc2cc(-c3cncc(Oc4ccc(F)cc4)c3)ccc2[nH]1.O=C(O)C(F)(F)F.O=C(O)C(F)(F)F", "logD": 3.11}
{"Compound": "Cc1ccc2nc(C(F)(F)F)c(C(=O)NCc3ccco3)n2c1", "logD": 4.32}
{"Compound": "O=C(C=Cc1ccco1)N1CCN(Cc2ccc3c(c2)OCO3)CC1", "logD": 4.51}
{"Compound": "COc1ccc(Nc2ccccc2NC(=O)c2ccc(O)nc2)cc1", "logD": 2.92}
{"Compound": "Cc1nc2ccccn2c1C(=O)NCc1cccs1", "logD": 2.92}
{"Compound": "O=C(NCc1ccccc1F)N1CCN(Cc2ccc(Br)s2)CC1", "logD": 5.72}
{"Compound": "COc1cc(CN2CCC3(C=Cc4ccccc43)CC2)cc2c1OCO2", "logD": 7.03}
{"Compound": "O=C(C=Cc1cccs1)N1CCN(Cc2ccc3c(c2)OCO3)CC1", "logD": 4.97}
{"Compound": "Br.CC(C)(C)c1ccccc1OCCCON1C(=N)N=C(N)NC1(C)C", "logD": 4.04}
{"Compound": "COc1ccc(-c2cc(NC(=O)c3ccc(F)cc3Cl)ccc2OC)cc1", "logD": 6.28}
{"Compound": "c1ccc(-c2nc(NC3CCCCC3)cc(C3CC3)n2)nc1", "logD": 6.09}
{"Compound": "c1cncc(NCc2ccc(-c3cc4ccncc4cc3OC3CCNCC3)s2)c1", "logD": 1.9}
{"Compound": "COc1ccc(CCNC(=O)c2c(C)nc3ccccn23)cc1", "logD": 3.39}
{"Compound": "CCOC(=O)CC[C@H](NC(=O)c1ccc(S(=O)(=O)Nc2ccc3nc(N)[nH]c(=O)c3c2)cc1)C(=O)OCC", "logD": 2.46}
{"Compound": "Br.CCc1ccccc1OCCCON1C(=N)N=C(N)NC1(C)C", "logD": 3.3}
{"Compound": "Cc1ccc2nc(C(F)(F)F)c(C(=O)NCc3cc(Cl)cc(Cl)c3)n2c1", "logD": 6.65}
{"Compound": "CC(C)(C)C(=O)CC1(O)Oc2ccccc2N=C1C=C(O)C(C)(C)C (stereo not given)", "logD": 7.49}
{"Compound": "Cc1cc(OCC(=O)NCc2ccccc2)c2cc(Br)ccc2n1", "logD": 4.97}
{"Compound": "CCc1c(C)nc(-n2nc(C)cc2NC(=O)c2ccccc2SC)[nH]c1=O", "logD": 5.63}
{"Compound": "Br.Cc1cc(C)cc(OCCCON2C(=N)N=C(N)NC2(C)C)c1", "logD": 3.2}
{"Compound": "CC(=O)NCCn1c(Sc2ccnc(N3CCN(c4ccncc4)CC3)n2)nnc1-c1ccccc1", "logD": 1.06}
{"Compound": "CNc1nc(SCC(=O)N(C)Cc2ccc(Cl)s2)nc2ccccc12", "logD": 5.07}
{"Compound": "Cl.O=C(c1ccco1)N(CCCn1ccnc1)c1nc2c(Cl)cccc2s1", "logD": 5.25}
{"Compound": "Br.CC1(C)N=C(N)N=C(N)N1OCCc1ccc2ccccc2c1", "logD": 2.92}
{"Compound": "c1ccc(-c2nnc(Sc3ccnc(N4CCN(c5ccncc5)CC4)n3)n2CCCN2CCOCC2)nc1", "logD": 2.08}
{"Compound": "CC(C)OC(=O)COc1ccc(-c2cnc(N(C)CCc3ccncc3)nc2)cc1", "logD": 5.63}

----------
- Experimental details: physchem
- Measurement parameters: phosphate buffered saline, pH 7.4
Measured solubility kinetic by item
Value type: solubility kinetic (µM)

{"Compound": "Cn1c(=O)c2c([S+](C)[O-])snc2n(C)c1=O (stereo unspecified)", "Quantitative readout": 420}
{"Compound": "COc1ccc(CCNC(=O)c2c(C)nc3ccccn23)cc1", "Quantitative readout": 348}
{"Compound": "COc1ccc2sc(Nc3nc(-c4ccccn4)cs3)nc2c1", "Quantitative readout": 22}
{"Compound": "Cc1n[nH]c(C)c1S(=O)(=O)NCc1nc(NCCCc2ccccc2)c2ccccc2n1", "Quantitative readout": 240}
{"Compound": "Cn1ccnc1CNCCS(=O)(=O)c1cccc(Nc2ccc(-c3cccc(F)c3)cn2)c1", "Quantitative readout": 64}
{"Compound": "O=C(c1cc2c(s1)CCC2)N1CCN(Cc2ccc3c(c2)OCO3)CC1", "Quantitative readout": 117}
{"Compound": "Cl.Cl.O=C(Nc1ccc(NC2=NCCN2)cc1)c1ccc(C(=O)Nc2ccc(NC3=NCCN3)cc2)cc1", "Quantitative readout": 26}
{"Compound": "Nc1nc(N)c2c(Sc3ccc4ccccc4c3)cccc2n1", "Quantitative readout": 32}
{"Compound": "O=C(c1cnn(C(=O)c2ccco2)c1)c1cc(F)ccc1O", "Quantitative readout": 1}
{"Compound": "O=C(NCc1ccc(Oc2ccccc2)cc1)c1c(C(F)(F)F)nc2ccccn12", "Quantitative readout": 1}
{"Compound": "Nc1cccnc1Nc1ccc(Cl)cc1", "Quantitative readout": 94}

----------
- Experimental details: physchem
- Measurement parameters: octanol/water
- Description: GSK_TB: GSK in-house hydrophobicity assay (logP)

{"Structure as smiles": "c1ccc(-c2csc(Nc3nc4cc5c(cc4s3)OCO5)n2)nc1", "logP": 5.06}
{"Structure as smiles": "Brc1c(-c2ccc3c(c2)OCO3)nc2ncccn12", "logP": 3.48}
{"Structure as smiles": "COc1ccc2cc(C(=O)Nc3ccc(C4CCN(C)CC4)cc3)sc2c1", "logP": 5.93}
{"Structure as smiles": "Br.CC1(C)NC(N)=NC(=N)N1OCCCOc1ccc(Cl)cc1Cl", "logP": 4.83}
{"Structure as smiles": "c1cncc(NCc2ccc(-c3cc4ccncc4cc3OC3CCNCC3)s2)c1", "logP": 4.23}
{"Structure as smiles": "COc1ccc(-c2ccc(Nc3cccc(S(=O)(=O)CCNCCc4cccs4)c3)nc2)cn1", "logP": 5.83}
{"Structure as smiles": "O=C(C=Cc1cccs1)N1CCN(Cc2ccc(Br)s2)CC1", "logP": 6.74}
{"Structure as smiles": "Cc1occc1C(=O)Nc1nc(-c2ccccn2)nc2ccsc12", "logP": 4.93}
{"Structure as smiles": "Clc1ccc(Nc2nc(-c3ccccn3)cs2)nc1", "logP": 6.53}
{"Structure as smiles": "c1ccc(Cc2nnc(Sc3ccnc(N4CCN(c5ccncc5)CC4)n3)n2CCN2CCOCC2)cc1", "logP": 3.12}
{"Structure as smiles": "CC(C)OC(=O)COc1ccc(-c2cnc(N(C)CCc3ccncc3)nc2)cc1", "logP": 5.93}

----------
- Experimental details: physchem
- Measurement parameters: buffer, pH 7.4
Reported logD values for the following compounds.

{"Compound": "O=C(CCC1CCCCC1)Nc1cccc(-c2nnc(-c3ccco3)o2)c1", "logD": 6.84}
{"Compound": "O=C(Cc1ccc(F)cc1)Nc1nc(-c2ccccn2)cs1", "logD": 4.32}
{"Compound": "Cc1ccc2nc(C(F)(F)F)c(C(=O)NCc3ccc4c(c3)OCO4)n2c1", "logD": 4.79}
{"Compound": "Br.Cc1ccccc1OCCCON1C(=N)N=C(N)NC1(C)C", "logD": 2.83}
{"Compound": "CCCCc1ccc(C(=O)Nc2nccc3ccccc23)nc1", "logD": 6.65}
{"Compound": "Cc1nn(Cc2ccccc2)c(Cl)c1C(=O)NC1CCCCCC1", "logD": 6.75}
{"Compound": "Cn1c(=O)c2c([S+](C)[O-])snc2n(C)c1=O (stereo unspecified)", "logD": 1.24}
{"Compound": "COc1cc(Cc2cnc(N)nc2N)c2cnccc2c1N(C)C", "logD": 2.55}
{"Compound": "Cc1cccc(Cn2ccc(NC(=O)c3ccc4c(c3)OCO4)n2)c1", "logD": 5.07}
{"Compound": "O=C(Nc1ccccc1-c1nc(C2CCC2)cs1)OCC1CCNCC1.O=C(O)C(F)(F)F", "logD": 4.41}
{"Compound": "CC(C)c1ccc(-c2cncc(N3CCN(c4ccncc4)CC3)n2)cc1", "logD": 4.79}
